Data origin: patent US20260242478A1

Answer each item with its documented Anti-CD28 Fab signal in the presence of CD28 (phage binding ELISA).
molecular target: T1, Anti-CD28 Fab (SEQ ID NOs: 696, 697); experiment: phage ELISA on plate-bound anti-CD28 Fab pre-incubated with CD28 antigen as competitor
T1 construct: In the phage ELISA the Fab was biotinylated and captured on neutravidin coated plates
T1 sequence (VH, as listed by the source, chain 1 of 2): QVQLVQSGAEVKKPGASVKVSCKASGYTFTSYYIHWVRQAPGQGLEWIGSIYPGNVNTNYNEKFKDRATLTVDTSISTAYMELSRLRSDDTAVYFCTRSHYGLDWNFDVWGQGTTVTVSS
T1 sequence (VL, as listed by the source, chain 2 of 2): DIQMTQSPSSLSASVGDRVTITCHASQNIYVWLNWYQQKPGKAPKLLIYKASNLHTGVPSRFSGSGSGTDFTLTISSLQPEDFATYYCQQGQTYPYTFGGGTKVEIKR
Lab note: jot the number down without any unit.

For reference, reported Anti-CD28 Fab signal in the presence of CD28 (phage binding ELISA) for TCAAGATYAWPYCV [Phage-1376 peptide (SEQ ID NO: 1672)] stands at 0.09

For reference, reported Anti-CD28 Fab signal in the presence of CD28 (phage binding ELISA) for SCAAGAMYSWPTCL [Phage-1382 peptide (SEQ ID NO: 1678)] stands at 0.08

For reference, reported Anti-CD28 Fab signal in the presence of CD28 (phage binding ELISA) for TCAAGAHWPWPTCF [Phage-1385 peptide (SEQ ID NO: 1681)] stands at 0.07

For reference, reported Anti-CD28 Fab signal in the presence of CD28 (phage binding ELISA) for TCSAGASNKLSLCL [Phage-1378 peptide (SEQ ID NO: 1674)] stands at 0.06

For reference, reported Anti-CD28 Fab signal in the presence of CD28 (phage binding ELISA) for LCNAGATYSWPTCL [Phage-1387 peptide (SEQ ID NO: 1683)] stands at 0.06

For reference, reported Anti-CD28 Fab signal in the presence of CD28 (phage binding ELISA) for NCSAGAQWPWPICL [Phage-1383 peptide (SEQ ID NO: 1679)] stands at 0.08

For reference, reported Anti-CD28 Fab signal in the presence of CD28 (phage binding ELISA) for RCSAGFHYPLSLCL [Phage-1380 peptide (SEQ ID NO: 1676)] stands at 0.06

For reference, reported Anti-CD28 Fab signal in the presence of CD28 (phage binding ELISA) for TCAAGANWEWPWCF [Phage-1375 peptide (SEQ ID NO: 1671)] stands at 0.08
